- Tested on: MPNST cells sNF02.2
- ASSAY: Alamar blue viability dose response
- Type: cell-based, human
- CONDITION_NOTES: Homo sapiens, 72 h, read-out: IC50 growth inhibition
pIC50: −log10 of the molar value.
RECORDED_METRIC: pIC50

1. [N-]=[N+]=CC(=O)CC[C@H](N)C(=O)O [DON, 6-diazo-5-oxo-L-norleucine, reference compound]
5.62
